# Label claim (% target 0.40 mg/vial) values compiled below
Experiment: Peptide content (assay) of lyophilized drug product by UPLC-UV at 220 nm, conventional method (peptide as reference standard)
Assay type: physicochemical
Details: DP-7P batch, T60M, conventional method (peptide as RS)
Method: The purity including individual related substances and the assay of a DP-5P (5 peptides, SEQ ID NOs: 1-5) and DP-7P (7 peptides, SEQ ID NOs: 6-12) mixture were determined by reversed phase rapid HPLC (UPLC) using a mobile phase gradient of acetonitrile and water and UV detection at λ=220 nm. […] At T=0 months (TOM) the peptide content was measured using the conventional method of Example 2. […]
Your answer should be a plain number; it is taken to be in %.

| sequenceChain | measuredParameter | measurement |
| --- | --- | --- |
| DKKQRFHNIRGRWTGRCMSCCRSSRTRRETQL (Peptide 6) | Label claim (% target 0.40 mg/vial) | 107 |
| KQQLLRREVYDFAFRDLCIVYRDGN (Peptide 8) | Label claim (% target 0.40 mg/vial) | 107 |

-- ask Could you tell me which Label claim (% target 0.40 mg/vial) is on file for HYCYSLYGTTLEQQYNKPLCDLLIR (Peptide 7) ?
-- reply 106

-- ask Next up: LPQLCTELQTTIHDIILECVYCKQQLLRREVY (Peptide 9)
-- reply 109

-- ask Next up: YGTTLEQQYNKPLCDLLIRCINCQKPLCPEEK (Peptide 12)
-- reply 105

-- ask Next up: RDLCIVYRDGNPYAVCDKCLKFYSKI (Peptide 11)
-- reply 105

-- ask Next up: MHQKRTAMFQ QERPRKLPQLCTELQTTIHD (MHQKRTAMFQQERPRKLPQLCTELQTTIHD; Peptide 10)
-- reply 109

* * *

Assay: Peptide content (assay) of lyophilized drug product by UPLC-UV at 220 nm, conventional method (peptide as reference standard)
Assay type: physicochemical
Conditions: DP-5P batch, T0M, conventional method (peptide as RS)
measuredParameter: Assay (mg/vial)
Your answer should be a plain number; it is taken to be in mg/vial.

Consider the following illustrative entries.
| sequenceChain | unitText | measurement |
| --- | --- | --- |
| RCINCQKPLCPEEKQRHLDKKQRFHNIRGRWT (Peptide 4) | mg/vial | 0.3936 |
| DKCLKFYSKISEYRHYCYSLYGTTL (Peptide 1) | mg/vial | 0.4047 |
| LYCYEQLNDSSEEEDEIDGPAGQAEPDRAHYNIVT (Peptide 2) | mg/vial | 0.4085 |
| MHGDTPTLHEYMLDLQPETTDLYCYEQLNDSSEEE [Peptide 3] | mg/vial | 0.3942 |

Read the next record carefully.
-- ask Could you tell me which Assay (mg/vial) is on file for TLRLCVQSTHVDIRTLEDLLMGTLGIVCPICSQKP (Peptide 5) ?
-- reply 0.3976

* * *

Assay: Peptide content (assay) of lyophilized drug product by UPLC-UV at 220 nm, method according to the invention (USP reserpine reference standard, RRF)
Assay type: physicochemical
Conditions: DP-5P batch, T48M, method according to the invention (USP RS)
measuredParameter: Label claim (% target 0.40 mg/vial) (%)
Your answer should be a plain number; it is taken to be in %.

Consider the following illustrative entries.
| sequenceChain | unitText | Label claim (% target 0.40 mg/vial) |
| --- | --- | --- |
| MHGDTPTLHEYMLDLQPETTDLYCYEQLNDSSEEE [Peptide 3] | % | 95 |
| DKCLKFYSKISEYRHYCYSLYGTTL (Peptide 1) | % | 98 |
| LYCYEQLNDSSEEEDEIDGPAGQAEPDRAHYNIVT (Peptide 2) | % | 99 |
| RCINCQKPLCPEEKQRHLDKKQRFHNIRGRWT (Peptide 4) | % | 96 |

Read the next record carefully.
-- ask Could you tell me which Label claim (% target 0.40 mg/vial) is on file for TLRLCVQSTHVDIRTLEDLLMGTLGIVCPICSQKP (Peptide 5) ?
-- reply 101

Source: patent US20230296569A1
